# Test system: L1210/CPA cells
# EXPERIMENT DESCRIPTION: L1210/CPA cell proliferation ([3H]-thymidine incorporation)
# Format: cell-based, Murine
# CONDITION INFO: Mus musculus, L1210; [³H]-thymidine incorporation; read-out: mean IC₅₀
ATTRIBUTE MEASURED: IC50 (µM)
Numbers only here, please. The scale is µM.

### Prompt Item under review: O=CCCNCCCCNCCC=O [SDA] . Reported IC50?
### Response 8.3

* * *

# Tested on: cytosolic ALDH
# EXPERIMENT DESCRIPTION: NAD-linked cytosolic ALDH assay, L1210/CPA cells
# Format: biochemical, Murine
# CONDITION INFO: SDA (1.0 mM) as substrate; pretreated with inhibitor 5 min at 37°C; read-out: Inhibition (IC₅₀)
ATTRIBUTE MEASURED: IC50 (nM)
Please reply with the bare figure in nM and do not write the unit itself.

### Prompt Param readout= IC50; system= cytosolic ALDH; entry= `C=CC=O` ; returns value.
### Response 2500

Data provenance is patent EP0366451A2.
